Listing of entries alongside the reported Metabolic active MRC-5 cells (%).
Tested on: human diploid embryonic lung cell line MRC-5
experimental.protocol: XTT cytotoxicity assay on MRC-5 cells
Assay type: cell-based
recorded.conditions: 60 µM, XTT
The reply should contain only the number, in %.

Reference set (3 entries):
| smiles.repr | Metabolic active MRC-5 cells (%) |
| --- | --- |
| CCCCCCCCCCCCCC#Cc1cc(=O)c2ccccc2n1C | 98.8 |
| CCCCCCCCCCC#Cc1cc(=O)c2ccccc2n1C | 100 |
| CCCCCCCCC#Cc1cc(=O)c2ccccc2n1CCC | 39.5 |

Problem: Identify Metabolic active MRC-5 cells (%) associated with the compound `CCCCCCCCCCCCC#CCCc1cc(=O)c2ccccc2n1C`
Result: 58.9

Problem: Name the recorded Metabolic active MRC-5 cells (%) of the item `CCCCCCC#CCCc1cc(=O)c2ccccc2n1CC` in your answer.
Result: 98.4

###

System: human diploid embryonic lung cell line MRC-5
experimental.protocol: XTT cytotoxicity assay on MRC-5 cells
Type: cell-based
recorded.conditions: 10 µM, XTT
The entries below are paired with their reported Metabolic active MRC-5 cells (%).
Kindly answer with a numeric value in %, unit omitted.

These solved cases illustrate the format of a correct answer.
| smiles.repr | recorded.endpoint | reported.result |
| --- | --- | --- |
| CCCCCCCC#CCCc1cc(=O)c2ccccc2n1C | Metabolic active MRC-5 cells (%) | 101 |
| CCCCCCCCC#CCCc1cc(=O)c2ccccc2n1CC | Metabolic active MRC-5 cells (%) | 97.6 |
| CCCCCCCCC#Cc1cc(=O)c2ccccc2n1CCCC | Metabolic active MRC-5 cells (%) | 103 |
| CCCCCCC#CCCc1cc(=O)c2ccccc2n1CCC | Metabolic active MRC-5 cells (%) | 103 |

Turning now to a further molecule:
Problem: Output reported Metabolic active MRC-5 cells (%) of the molecule `CCCCCCCCCCCCCC#Cc1cc(=O)c2ccccc2n1C` on human diploid embryonic lung cell line MRC-5.
Result: 100

###

recorded.endpoint: melting point

The cases that follow already have their melting point on record.
| compound | recorded.endpoint | reported.result |
| --- | --- | --- |
| O=c1cc(/C=C/CCCCCCCCCCCBr)n(C2CC2)c2ccccc12 [Compound 18b] | melting point | 61 to 63 °C |
| CCCCCCCCCCC#CCCc1cc(=O)c2ccccc2n1CC | melting point | 74 to 76 °C |
| CCCCCCCCCCCC/C=C/c1cc(=O)c2ccccc2n1C1CC1 [Compound 22b] | melting point | 96 to 98 °C |
| O=c1cc(/C=C/CCCCCCCCCCBr)n(C2CC2)c2ccccc12 [Compound 18a] | melting point | 85 to 87 °C |
| CCCCCCCCCCCCC#Cc1cc(=O)c2ccccc2n1C | melting point | 41 to 43 °C |

Problem: In one line, give reported melting point of the entry `CCCCCCCCCCC#CCCc1cc(=O)c2ccccc2n1C` .
Result: 43 to 45 °C

Problem: Give melting point for the following compound: `CCCCCCCCC#CCCc1cc(=O)c2ccccc2n1CC`
Result: 66 to 68 °C

Problem: Using known records, supply melting point for `CCCCCCCCCCCCC#CCCc1cc(=O)c2ccccc2n1C`
Result: 58 to 61 °C

Problem: Please look at this compound and report its melting point: CCCCCCCCCCC/C=C/c1cc(=O)c2ccccc2n1C1CC1 [Compound 22a]
Result: 86 to 88 °C
